From: patent US11111245B2

So I've got a bunch of compounds here, and I need their Ki values.
biological target: CDKs and other kinases (Homo sapiens, UniProt P06493); construct: other: CDK1B; residual activity (%) at 10 μM CDK1B; compound at 10 μM; experiment: Radiometric kinase assay (Eurofins Pharma Discovery or Reaction Biology Corporation Kinase Profiler); assay type: biochemical; conditions: CDK1B; read-out: CDK inhibition, Ki (μM) CDK1B
Sequence (P06493 whole entry): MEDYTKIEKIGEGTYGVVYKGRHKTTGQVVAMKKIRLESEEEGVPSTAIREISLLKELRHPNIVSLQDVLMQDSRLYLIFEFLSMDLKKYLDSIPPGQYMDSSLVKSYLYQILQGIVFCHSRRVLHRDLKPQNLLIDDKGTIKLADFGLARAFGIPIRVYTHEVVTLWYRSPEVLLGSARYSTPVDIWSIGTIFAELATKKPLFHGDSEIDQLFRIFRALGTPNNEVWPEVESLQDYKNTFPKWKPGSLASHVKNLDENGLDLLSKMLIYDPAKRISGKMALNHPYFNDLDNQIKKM

### Prompt Recorded Ki for Cc1cnc(N[C@H]2CC[C@H](N)CC2)nc1-c1cnc2ccc(Nc3cccnn3)cn12 [Compound 71] , please?
### Response 6.05 µM

### Prompt Could you share which Ki value was measured for Cc1cnc(N[C@H]2CC[C@H](N)CC2)nc1-c1cnc2ccc(Nc3cccnc3)cn12 [Compound 34] ?
### Response 2.16 µM

### Prompt Sample N[C@H]1CC[C@H](Nc2ncc(Cl)c(-c3cnc4ccc(-c5ccccc5)cn34)n2)CC1 [Compound 79] — what was its Ki?
### Response 0.27 µM

###

target: CDKs and other kinases (Homo sapiens, UniProt P24941); construct: other: CDK2A; residual activity (%) at 10 μM CDK2A; compound at 10 μM; test: Radiometric kinase assay (Eurofins Pharma Discovery or Reaction Biology Corporation Kinase Profiler); format: biochemical; details: CDK2A; compound at 10 μM; read-out: residual activity (%) at 10 μM CDK2A
Please go through the items and note down their remaining activity at 10 µM.
Field: numeric (%). Do not append units.

### Prompt Tell me the measured remaining activity at 10 µM of CS(=O)(=O)N1CCC(Nc2ncc(F)c(-c3cnc4cc(-c5ccccc5)ccn34)n2)CC1 [Compound 171] , please.
### Response 35

### Prompt Quick one: remaining activity at 10 µM of N[C@H]1CC[C@H](Nc2ncc(F)c(-c3cnc4cc(Cl)ccn34)n2)CC1 [Compound 43] ?
### Response 1

### Prompt Report remaining activity at 10 µM for Cc1cnc(N[C@H]2CC[C@H](N)CC2)nc1-c1cnc2cc(F)c(-c3ccccc3)cn12 [Compound 159] please.
### Response 11

### Prompt Suppose we examine the compound Cc1cnc(N[C@H]2CC[C@H](N3CCCC3)CC2)nc1-c1cnc2ccc(Nc3cncnc3)cn12 [Compound 142] ; what remaining activity at 10 µM value has been reported?
### Response 15

### Prompt remaining activity at 10 µM for CS(=O)(=O)N1CCC(Nc2ncc(F)c(-c3cnc4ccccn34)n2)CC1 [Compound 24] ?
### Response -1

### Prompt Using the record for N[C@H]1CC[C@H](Nc2ncc(Cl)c(-c3cnc4ccc(-c5ccc(N6CCNCC6)nc5)cn34)n2)CC1 [Compound 84] , report its remaining activity at 10 µM.
### Response 39

### Prompt Tell me the measured remaining activity at 10 µM of Fc1cnc(NC2CCN(CC3CCCC3)CC2)nc1-c1cnc2ccc(-c3ccccc3)cn12 [Compound 146] , please.
### Response 34

### Prompt # lookup: remaining activity at 10 µM of Cc1cnc(NC2CCC(N3CCNC(=O)C3)CC2)nc1-c1cnc2ccc(Nc3cncnc3)cn12 (centres unmarked) [Compound 168]
### Response 11

### Prompt Which measured remaining activity at 10 µM value corresponds to Cc1cnc(N[C@]23C[C@@]4(C)C[C@](C)(C[C@](O)(C4)C2)C3)nc1-c1cnc2ccc(Nc3cccnc3)cn12 [Compound 101] ?
### Response 41

### Prompt Which remaining activity at 10 µM reading was recorded for the compound N[C@H]1CC[C@H](Nc2ncc(F)c(-c3cnc4ccc(-c5cccnc5)cn34)n2)CC1 [Compound 26] ?
### Response 5

### Prompt // query remaining activity at 10 µM value for entry COc1ccc(-c2ccc3ncc(-c4nc(N[C@H]5CC[C@H](N)CC5)ncc4C)n3c2)cn1 [Compound 58]
### Response 70

### Prompt Endpoint output: remaining activity at 10 µM of CN1CCC(Nc2ncc(F)c(-c3cnc4ccc(Nc5cncnc5)cn34)n2)CC1 [Compound 149] . Value?
### Response 20

### Prompt So what does the record say about remaining activity at 10 µM for Cc1cnc(NC2CCOCC2)nc1-c1cnc2ccc(Nc3cccnc3)cn12 [Compound 103] ?
### Response 1

### Prompt Field request: remaining activity at 10 µM | item: Cc1cnc(N[C@H]2CC[C@H](NCC(N)=O)CC2)nc1-c1cnc2ccc(Nc3cncnc3)cn12 [Compound 153]
### Response 14

### Prompt Can you look up the measured remaining activity at 10 µM of Fc1cnc(NC2CCN(CC3CC3)CC2)nc1-c1cnc2ccc(-c3ccccc3)cn12 [Compound 145] for me?
### Response 22

### Prompt Which remaining activity at 10 µM is reported for this compound? Cc1cnc(NC2CCC(F)(F)CC2)nc1-c1cnc2ccccn12 [Compound 156]
### Response 34

### Prompt // remaining activity at 10 µM lookup, key: CC(C)(C)OC(=O)N1CCC(Nc2ncc(F)c(-c3cnc4ccccn34)n2)CC1 [Compound 20]
### Response 54

### Prompt Bench note: what remaining activity at 10 µM did Fc1cnc(N[C@H]2CC[C@H](Nc3ccccn3)CC2)nc1-c1cnc2ccc(-c3ccccc3)cn12 [Compound 28] show?
### Response 8

### Prompt Data request, read-out remaining activity at 10 µM, for Cc1cnc(NC2CCC(N(C)C)CC2)nc1-c1cnc2ccc(-c3ccccc3)cn12 (centres unmarked) [Compound 97]
### Response 32

### Prompt # remaining activity at 10 µM lookup, item CNC(=O)N[C@H]1CC[C@H](Nc2ncc(C)c(-c3cnc4ccc(-c5ccccc5)cn34)n2)CC1 [Compound 169]
### Response 31

### Prompt Any idea what its remaining activity at 10 µM is? The compound is Fc1cnc(NC2CCNCC2)nc1-c1cnc2cc(-c3ccccc3)ccn12 [Compound 170]
### Response 7

### Prompt So what does the record say about remaining activity at 10 µM for CCN[C@H]1CC[C@H](Nc2ncc(C)c(-c3cnc4ccc(-c5ccccc5)cn34)n2)CC1 [Compound 131] ?
### Response 44

### Prompt Tell me the measured remaining activity at 10 µM of N[C@H]1CC[C@H](Nc2ncc(F)c(-c3cnc4ccc(Nc5cncnc5)cn34)n2)CC1 [Compound 50] , please.
### Response 0

### Prompt Dear colleague, I am looking for the recorded remaining activity at 10 µM of the following compound: Cc1cnc(NC2CCC(F)(F)CC2)nc1-c1cnc2ccc(-c3ccccc3)cn12 [Compound 155]
### Response 100

### Prompt Sample COCCN[C@H]1CC[C@H](Nc2ncc(C)c(-c3cnc4ccc(-c5ccccc5)cn34)n2)CC1 [Compound 129] — what was its remaining activity at 10 µM?
### Response 0

### Prompt Can you share its remaining activity at 10 µM? I mean this compound: Cc1cnc(N[C@H]2CC[C@H](N)CC2)nc1-c1cnc2ccc(Oc3cncnc3)cn12 [Compound 75]
### Response 22

### Prompt Need remaining activity at 10 µM, item Fc1cnc(NC2CCNCC2)nc1-c1cnc2ccc(-c3ccccc3)cn12 [Compound 143]
### Response 4

### Prompt What value of remaining activity at 10 µM has been reported for the following compound? CN1CCC(N[C@H]2CC[C@H](Nc3ncc(F)c(-c4cnc5ccc(-c6ccccc6)cn45)n3)CC2)CC1 [Compound 160]
### Response 7

### Prompt GET /values?readout=remaining activity at 10 µM&item= N[C@H]1CC[C@H](Nc2ncc(Cl)c(-c3cnc4cc(-c5cccnc5)ccn34)n2)CC1 [Compound 78]
### Response 0

### Prompt Consider the compound Fc1cnc(N[C@H]2CC[C@H](NC3CCOCC3)CC2)nc1-c1cnc2ccccn12 [Compound 33] and give its measured remaining activity at 10 µM.
### Response 13

### Prompt Recorded remaining activity at 10 µM for Cc1cnc(N[C@H]2CC[C@H](C(=O)O)CC2)nc1-c1cnc2ccc(Nc3cncnc3)cn12 [Compound 158] , please?
### Response 85

### Prompt GET /values?readout=remaining activity at 10 µM&item= N[C@H]1CC[C@H](Nc2ncc(F)c(-c3cnc4ccc(Nc5cccc(F)c5)cn34)n2)CC1 [Compound 25]
### Response 2
